- Species on record: Rattus norvegicus
- ASSAY: Open TG-GATES - Regimen: Daily Repeat
- Assay type: toxicity, organism-based, Sprague-Dawley
- Design: regimen Daily Repeat, gender Male, age 6 weeks
- CONDITION CONTEXT: in vivo, po, 100 mg/kg, […], tissue Kidney, route gavage, dose level Low, time 28 day
OUTCOME MEASURE: KIDNEY_R (g)
All answers are understood in g, so give the number only.

Example entries and their recorded answers appear below.
Lab book: KIDNEY_R of CC(S)C(=O)NCC(=O)O (centres undefined) noted as 1.4

Lab book: KIDNEY_R of `O=C(O)c1ccccc1Nc1ccccc1` noted as 1.5

Lab book: KIDNEY_R of CCCCNC(=O)NS(=O)(=O)c1ccc(C)cc1 [TOLBUTAMIDE] noted as 1.3

Query compound follows.
Lab book: KIDNEY_R of `CC(=O)[C@@]1(O)CC[C@H]2[C@@H]3C=C(Cl)C4=CC(=O)CC[C@]4(C)[C@H]3CC[C@@]21C` noted as 1.3
